The measurements presented in this section are drawn from paper PMC10663500.

target: T1, human programmed cell death protein 1 (hPD-1) C93S (aa 24-167) (Homo sapiens, UniProt Q15116, C93S); assay: SPR; Carterra LSA; Fab from the ammonium sulfate precipitate of the culture supernatant immobilised on a NiHC200M chip; hPD-1 (1-1024 nM) or mPD-1-Fc (4-1024 nM) as analyte, fourfold dilution series, no regeneration; HBS-EP pH 7.4, 25 °C; medians over the spots of a construct, KD = koff/kon; details: one partner purified
T1 construct: made as a fusion with a TEV site and human Fc; the Fc was cut off with TEV protease; source: Expi293F, purified (Protein A, TEV cleavage of Fc, SEC; monomer fractions); not shown: Fc (human), C-terminal, cleaved
T1 sequence (Q15116 24-167 C93S): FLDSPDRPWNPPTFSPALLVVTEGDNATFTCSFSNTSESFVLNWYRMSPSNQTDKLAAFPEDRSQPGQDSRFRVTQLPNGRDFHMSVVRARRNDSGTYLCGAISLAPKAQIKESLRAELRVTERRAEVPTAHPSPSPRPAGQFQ
koff for assorted binders
Entry rule: numbers only, all in s⁻¹.

A selection of reference data follows.
1. toripalimab Fab H.Y108A (Fab, V domains shown, heavy chain of Sm3 with this change; numbers count from the chain's first residue; as the light chain of Sm3; source: Brevibacillus, culture supernatant (ammonium sulfate precipitate); not shown: 6xHis, C-terminal, kept; 6xHN, C-terminal, kept) VH: QGQLVQSGAEVKKPGASVKVSCKASGYTFTDYEMHWVRQAPIHGLEWIGVIESETGGTAYNQKFKGRVTITADKSTSTAYMELSSLRSEDTAVYYCAREGITTVATTAYWYFDVWGQGTTVTVSS VL: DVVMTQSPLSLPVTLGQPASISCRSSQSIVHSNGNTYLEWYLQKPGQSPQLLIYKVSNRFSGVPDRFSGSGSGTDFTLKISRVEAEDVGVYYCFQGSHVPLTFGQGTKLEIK = 0.000235
2. toripalimab Fab H.K65Y (Fab, V domains shown, heavy chain of Sm3 with this change; numbers count from the chain's first residue; as the light chain of Sm3; source: Brevibacillus, culture supernatant (ammonium sulfate precipitate); not shown: 6xHis, C-terminal, kept; 6xHN, C-terminal, kept) VH: QGQLVQSGAEVKKPGASVKVSCKASGYTFTDYEMHWVRQAPIHGLEWIGVIESETGGTAYNQKFYGRVTITADKSTSTAYMELSSLRSEDTAVYYCAREGITTVATTYYWYFDVWGQGTTVTVSS VL: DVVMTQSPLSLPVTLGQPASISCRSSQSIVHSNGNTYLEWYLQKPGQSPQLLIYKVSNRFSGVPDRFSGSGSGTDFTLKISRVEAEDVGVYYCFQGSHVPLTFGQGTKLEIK = 1.86e-05

Request: # lookup: koff of toripalimab Fab L.L101T (Fab, V domains shown, as the heavy chain of Sm3; light chain of Sm3 with this change; numbers count from the chain's first residue; source: Brevibacillus, culture supernatant (ammonium sulfate precipitate); not shown: 6xHis, C-terminal, kept; 6xHN, C-terminal, kept) VH: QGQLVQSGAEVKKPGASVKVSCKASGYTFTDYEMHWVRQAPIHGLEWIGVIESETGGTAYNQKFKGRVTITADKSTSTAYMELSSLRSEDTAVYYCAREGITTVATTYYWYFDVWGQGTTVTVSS VL: DVVMTQSPLSLPVTLGQPASISCRSSQSIVHSNGNTYLEWYLQKPGQSPQLLIYKVSNRFSGVPDRFSGSGSGTDFTLKISRVEAEDVGVYYCFQGSHVPTTFGQGTKLEIK
Result: 3.03e-05
